Tested on: MALME-3M melanoma
Test: NCI tumour cell line growth inhibition, 48 h
Reported TGI values follow for various molecules
endpoint: TGI

CC(=O)[O-].[Zn].c1ccc(/C(=N\Nc2ccccn2)c2ccccn2)cc1 = 1.58 µM
COc1cccc(-c2nccc3c(OCc4ccccc4)c(OC)c(OC)cc23)c1 = > 100 µM
COc1cc(NC(=O)NCc2ccco2)ccc1-c1ccc(NC(=O)NCc2ccco2)cc1OC = 5.56 µM
COC1(c2cccs2)c2ccccc2C(OC)(c2cccs2)c2ccccc21 (stereo not given) = > 100 µM
CCOC(=O)C(=CN1CCNC1=S)C(=O)OCC = > 100 µM

---

Test system: HCT-15 colon
Test: NCI tumour cell line growth inhibition, 48 h
endpoint: TGI

Nc1cc(S(N)(=O)=O)ccc1SSc1ccc(S(N)(=O)=O)cc1N = > 100 µM
CCOC(=O)c1ccc(N2C(=O)Cc3ccccc3C2=O)cc1 = > 100 µM
Clc1ccc(C2CC(c3cccc(Nc4ccncc4)c3)=NN2c2cc(Cl)cc(Cl)c2)cc1 (centres undefined) = 3.45 µM
Nc1nccc2c1ncn2C1OC(CO)C(O)C1O (centres undefined) = > 100 µM
COC(=O)c1ccccc1C1=C([N+](=O)[O-])C(c2ccccc2)C(C#N)=C(N)O1 (centres undefined) = 46.6 µM
O=c1cccccc1[O-].O=c1cccccc1[O-].O=c1cccccc1[O-].[Ce+3] = > 100 µM
CC1(C(=O)O)CCOc2ccccc21 (centres undefined) = > 100 µM
Nc1ccc(C(OC(=O)c2cc3ccccc3c(Cc3c(O)c(C(=O)OC(c4ccc(N)cc4)(c4ccc(N)cc4)c4ccc(N)cc4)cc4ccccc34)c2O)(c2ccc(N)cc2)c2ccc(N)cc2)cc1 = > 100 µM
COc1cccc(N=N/C(=N\NC(=O)c2cc(Br)ccc2O)c2ccc(N(CCC#N)CCC#N)cc2OC)c1 = > 150 mg/L
COC12CCC(C(C(=O)c3ccccc3)=C1C(=O)c1ccccc1)C(O)C2 (centres undefined) = > 100 µM
c1ccc(B2OCC(C3OB(c4ccccc4)OC4COB(c5ccccc5)OC43)O2)cc1 (centres undefined) = > 100 µM
COc1cc(F)c(/C=C/c2cc(/C=C/c3cc(OC)c(OC)cc3F)n(-c3cc(F)cc(F)c3)n2)cc1OC = 9.05 µM
COc1ccc2c(c1)c(-c1ccc(-c3cn(C)c4ccc(OC)cc34)[nH]1)cn2C = 3.91 µM
CN(C)CCSCCO = > 100 µM
O=C(COc1cccc(/C=C2\Oc3ccc4ccccc4c3C2=O)c1)c1ccc(Cl)cc1 = > 100 µM
CCOC(=O)c1[nH]c2cccc3c2c1CC[C@H](NC(=O)C(F)(F)F)C3=O = > 100 µM
COC(=O)c1cccc(OC)c1C#Cc1c(OC)cccc1OC = > 100 µM
COc1ccccc1C1(C)SCc2nc3ccccc3n21 (centres undefined) = > 10 µM
COC([C@@H](OC(=O)c1ccccc1)[C@H](OC(=O)c1ccccc1)C(O)COC(=O)c1ccccc1)n1cc(C)c(=O)[nH]c1=O (some centres undefined) = > 100 µM
Cc1ncc(C(=O)Nc2ccc(CN3CCN(C)CC3)c(C(F)(F)F)c2)cc1C#Cc1c(N)ncc2ccccc12 = 0.873 µM
COc1cc(OC2OC(COC(=O)c3cc(O)c(O)c(O)c3)C(O)C(O)C2O)ccc1O (centres undefined) = > 100 µM
COC12C=CC(C=C1C#N)CC2 (centres undefined) (tested in a mixture with another compound) = > 100 µM
COc1ccc(-c2cc(-c3cccc(NS(C)(=O)=O)c3)nc(N)c2C#N)cc1 = 19.4 µM
CCN(CC)c1ccc(N=C2C=C(Cl)C(=O)c3ncccc32)c(C)c1 = 20.8 µM
C=Cc1nc(C#N)c(N)o1 = > 100 µM
Cc1c(O)c(OC2OC(CO)C(O)C(O)C2O)cc2c1C=C[C@@H]1[C@@]2(C)C(=O)C[C@]2(C)[C@@H]([C@@](C)(O)C(=O)CCC(C)(C)O)[C@H](O)C[C@@]12C (some centres undefined) = 66.3 µM
NC(CC(O)(c1ccccc1)c1ccccc1)c1ccccc1S (centres undefined) = 33.6 µM
CC12ON(P(=O)(c3ccccc3)c3ccccc3)C(C)(c3ccccc31)c1ccccc12 = > 100 µM
Cc1cc(C)c(S(=O)(=O)N(CCc2cccc(Br)c2)Cc2ccc(-c3cccc(S(C)(=O)=O)c3)cc2)c(C)c1 = > 100 µM
CCNNC(=O)[C@@H]1[C@H](c2cc(OC)c(OC)c(OC)c2)c2cc3c(cc2[C@H](O)[C@H]1CO)OCO3 = > 100 µM
CCn1c(=O)c2ccccc2n2c(=O)c3cc4ccccc4cc3nc12 = > 100 µM
CCC(=O)/C(=C\I)c1ccccc1 = 3.37 µM
CC(=O)Oc1cc(OC(C)=O)c2c(C)cc(=O)oc2c1 = > 100 µM
COC1=C2C=[N+](C)C3C(=C2C=CC1OC)Cc1cc2c(cc13)OCO2 (centres undefined) = 35.3 µM
COc1ccc2c(c1)c1nn(CCN3CCCCC3)c3ccc4c(=O)n(CCN(C)C)c(=O)n2c4c13 = 0.0825 µM
CN(C)CC1CCC/C(=C\c2ccc(OC(=O)/C=C/c3ccc(Cl)c(Cl)c3)cc2)C1=O (centres undefined) = 6.84 µM
O=C(O)CCc1ccc2c(c1)CC1(Cc3ccccc3C1)C2 = > 100 µM
Cc1ccc(C2=C(c3ccc(C)cc3)C(c3ccc(C)cc3)=C(c3ccc(C)cc3)C2=O)cc1 = > 100 µM
COc1ccc(-c2ccc(-c3ccc(C(=N)N)cn3)o2)cc1Cl = 3.38 µM
